// provenance: paper PMC10817097

# key: entry, value: pIC50
System: NIH 3T3 (murine fibroblasts)
Assay: MTS cell proliferation/viability assay, control cells
Type: cell-based
Details: Mus musculus, NIH3T3, NIH 3T3 control cells, 72 h
pIC50: −log10 of the molar value.
Parameter measured: pIC50

1) CC(=O)Oc1ccc(/C=C/C(=O)OCCCCCCCCCC[P+](c2ccccc2)(c2ccccc2)c2ccccc2)cc1OC(C)=O | 4.55
2) CC(=O)Oc1ccc(/C=C/C(=O)OCCCCCCCC[P+](c2ccccc2)(c2ccccc2)c2ccccc2)cc1OC(C)=O | 4.42
3) CC(=O)Oc1ccc(/C=C/C(=O)OCCCCCC[P+](c2ccccc2)(c2ccccc2)c2ccccc2)cc1OC(C)=O | 4.35
4) CC(=O)Oc1ccc(/C=C/C(=O)OCCCCCCCCCCCC[P+](c2ccccc2)(c2ccccc2)c2ccccc2)cc1OC(C)=O | 4.49
